Reported exon inclusion enrichment index values for a set of variants
B1: mRNA-splicing (parent)
chain: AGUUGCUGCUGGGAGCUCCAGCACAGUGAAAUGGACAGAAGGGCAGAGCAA

Variants of: B1
Protocol description: exon inclusion enrichment index; higher = more inclusion; WT1 exon 5 minigene, HEK293
Note: the reply should be a number with no unit written.

(Q) Using the record for G15C C16U , report its exon inclusion enrichment index.
(A) 0.0653

(Q) Using the record for C6A U7A C9A U10A A47G , report its exon inclusion enrichment index.
(A) 0.13

(Q) Using the record for G5C C6U G8C C9U U10C G42A G43C , report its exon inclusion enrichment index.
(A) 4.2

(Q) Using the record for C6A U7A C9A U10A G41A G42C , report its exon inclusion enrichment index.
(A) 1.25

(Q) Using the record for C6A U7A C9A U10A A30G A31G , report its exon inclusion enrichment index.
(A) 0.168

(Q) Using the record for C6A U7C C9A U10C A37U G38A , report its exon inclusion enrichment index.
(A) 1.46

(Q) Using the record for G5A C6G U7G C9A A29G A30U , report its exon inclusion enrichment index.
(A) 0.000871

(Q) Using the record for G5A C6G U7G C9A U17G , report its exon inclusion enrichment index.
(A) 0.00284

(Q) Using the record for G2A G5C C6U G8C C9U U10C , report its exon inclusion enrichment index.
(A) 2.9

(Q) Using the record for C6A U7A C9A U10A G46U , report its exon inclusion enrichment index.
(A) 0.388

(Q) Using the record for C6A U7A C9A U10A A37U G38C , report its exon inclusion enrichment index.
(A) 0.667

(Q) Using the record for U4C G5A C6G U7G C9A , report its exon inclusion enrichment index.
(A) 0.0522

(Q) Using the record for C6A U7C C9A U10C G41C , report its exon inclusion enrichment index.
(A) 3.93

(Q) Using the record for C6A U7C C9A U10C A20G G21A , report its exon inclusion enrichment index.
(A) 3.72

(Q) Using the record for U27G G28U , report its exon inclusion enrichment index.
(A) 0.00139

(Q) Using the record for G5C C6G U7C U10C G21U , report its exon inclusion enrichment index.
(A) 2.48

(Q) Using the record for G5U G8U C9U U17G C18A , report its exon inclusion enrichment index.
(A) 0.124

(Q) Using the record for `C44G` , report its exon inclusion enrichment index.
(A) 0.391

(Q) Using the record for G5A U7C G8A U10C A47U G48C , report its exon inclusion enrichment index.
(A) 1.6

(Q) Using the record for A29U A30G , report its exon inclusion enrichment index.
(A) 0.237

(Q) Using the record for C6U U7C G8A U10A , report its exon inclusion enrichment index.
(A) 0.155

(Q) Using the record for G5U G8U C9U A45C G46U , report its exon inclusion enrichment index.
(A) 0.0571

(Q) Using the record for G5C C6G U7C U10C G28A A29G , report its exon inclusion enrichment index.
(A) 2.1
